Target: Phosphatidylinositol 4,5-bisphosphate 3-kinase catalytic subunit beta isoform (Homo sapiens)
Sequence (P42338 whole entry, canonical isoform): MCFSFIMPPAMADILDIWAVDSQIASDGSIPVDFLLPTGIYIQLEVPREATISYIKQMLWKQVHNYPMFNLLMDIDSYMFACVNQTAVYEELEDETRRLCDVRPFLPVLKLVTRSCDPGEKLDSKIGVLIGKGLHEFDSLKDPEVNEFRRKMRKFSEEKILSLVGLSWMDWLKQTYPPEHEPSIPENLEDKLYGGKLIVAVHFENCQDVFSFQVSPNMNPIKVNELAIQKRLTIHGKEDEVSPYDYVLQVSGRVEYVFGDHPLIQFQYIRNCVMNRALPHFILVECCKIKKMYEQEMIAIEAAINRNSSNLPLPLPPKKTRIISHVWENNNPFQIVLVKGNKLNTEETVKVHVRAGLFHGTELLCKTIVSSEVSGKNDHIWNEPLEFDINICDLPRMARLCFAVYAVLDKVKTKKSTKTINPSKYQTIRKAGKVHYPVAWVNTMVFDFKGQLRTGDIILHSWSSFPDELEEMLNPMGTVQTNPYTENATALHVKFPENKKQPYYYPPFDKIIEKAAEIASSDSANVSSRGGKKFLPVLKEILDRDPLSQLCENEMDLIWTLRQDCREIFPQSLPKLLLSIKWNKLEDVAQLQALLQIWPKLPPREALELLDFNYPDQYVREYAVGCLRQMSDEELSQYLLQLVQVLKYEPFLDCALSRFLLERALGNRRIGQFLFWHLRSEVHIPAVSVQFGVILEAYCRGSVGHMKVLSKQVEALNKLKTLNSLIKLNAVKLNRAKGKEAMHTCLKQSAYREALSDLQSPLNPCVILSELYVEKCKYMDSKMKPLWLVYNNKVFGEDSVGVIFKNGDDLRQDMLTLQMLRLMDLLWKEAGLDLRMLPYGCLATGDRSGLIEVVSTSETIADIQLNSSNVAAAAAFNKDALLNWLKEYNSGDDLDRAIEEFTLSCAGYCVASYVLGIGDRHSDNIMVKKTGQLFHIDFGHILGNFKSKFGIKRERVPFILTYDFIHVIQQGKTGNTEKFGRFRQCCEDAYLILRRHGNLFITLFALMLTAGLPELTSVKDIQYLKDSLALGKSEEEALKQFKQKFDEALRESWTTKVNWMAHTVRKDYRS
Experiment: Inhibition of PI3Kbeta in human washed platelets assessed as suppression of ADP-induced platelet aggregation preincubated for 5 mins followed by ADP stimulation after 10 mins by light transmission aggregometric analysis
pIC50: −log10 of the molar value.
measured-parameter: pIC50

* N[C@@H](Cc1ccccc1)C(=O)N1CCN(c2nc(N3CCOCC3)nc(-n3c(C(F)F)nc4ccccc43)n2)CC1 | 7.52

====

Assay: Inhibition of PI3Kbeta in human platelet-rich plasma assessed as suppression of ADP-induced platelet aggregation preincubated for 5 mins followed by ADP stimulation after 10 mins by light transmission aggregometric analysis
pIC50: −log10 of the molar value.
measured-parameter: pIC50

- N[C@@H](Cc1ccccc1)C(=O)N1CCN(c2nc(N3CCOCC3)nc(-n3c(C(F)F)nc4ccccc43)n2)CC1: 5.55

Reference for the values: BindingDB's records for doi:10.1016/j.ejmech.2016.06.010
